All values here come from the supplement of paper PMC6555819.

Tested on: LXRa:RXRa (NR concentration 270 nM, RXRa partner concentration 90 nM)
Assay: PBM binding z-score (relative to random genomic background probes); higher = stronger binding; sequences stand for … in GC…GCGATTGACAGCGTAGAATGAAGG
Hi there, I'd appreciate the recorded PBM binding z-score for every entry that follows.
Give bare numbers.

The cases that follow already have their PBM binding z-score on record.
TCTTGTAGAACAATAGAGGTTAAGAAAGTGCGCT | 2.99
TCTATTAGTTGAAGGGCAAGCGACGAGTCCGTTT | 1.02
ATCGAAAGTTCGACGAGGTGAGTATACACCGTTT | 0.833

Proceed to the following item.
In one line, give reported PBM binding z-score of the entry `GCTAGATGGTCAGTAAAAGGTCACACACCGGTCG` .
4.21
